Documented FC (fold change) across a set of molecules
- Assay Method Text: Example 4: dose response of FKBP constructs 160-255, Ec50, Ec90 and fold change (raw and normalized to mCherry)
- Type: cell-based
- Assay Context: fold change during initial analysis

In the examples that follow, each entry is paired with its recorded FC (fold change).
{"columns": ["Molecule", "Parameter", "Observed"],
 "data": [
  ["FKBP-249 (protein, Description of sequence: Construct Name: FKBP-249; Mutation(s): Q72R Q84E A117W V85R DRD S68D) HCPIKSRKGDVLHMHYTGKLEDGTEFDDSLPRNQPFVFSLGTGERIKGWDQGLLGMCEGEKRKLVIPSELGYGERGWPPKIPGGATLVFEVELLKIER", "FC (fold change)", 33.7],
  ["FKBP-175 (protein, Description of sequence: Construct Name: FKBP-175; Mutation(s): Q72R Q84E A117W DRD M54A D50L T57I I136L) HCPIKSRKGAVLHAHYIGKLEDGTEFDSSLPRNQPFVFSLGTGEVIKGWDQGLLGMCEGEKRKLVIPSELGYGERGWPPKIPGGATLVFEVELLKLER", "FC (fold change)", 7.25]
]}

Field: next molecule
Data request, read-out FC (fold change), for FKBP-180 (protein, Description of sequence: Construct Name: FKBP-180; Mutation(s): Q72R Q84E A117W DRD M54A F129T) HCPIKSRKGDVLHAHYTGKLEDGTEFDSSLPRNQPFVFSLGTGEVIKGWDQGLLGMCEGEKRKLVIPSELGYGERGWPPKIPGGATLVTEVELLKIER
1.2
